# System: PolyAU double stranded RNA
# Experiment description: Fluorescence intercalator displacement (FID) assay, SYBR-safe probe
# Recorded conditions: 20 μM compound, 30° C., lower % = stronger binding
Parameter: % Normalised Fluorescence with polyAU RNA. Scope: all listed entries.
Reported metric: % Normalised Fluorescence with polyAU RNA (%)

# Compound structure string, Reported measurement
data = [
    ("CCCCCCCCCCCCC[N+](C)(C)CCNC(=O)c1cc(NC(=O)c2cc(NC(=O)c3ccc(/C=C/c4cnc5ccccc5c4)cc3)cn2C)cn1C", 38),
    ("CN(C)c1ccc(/C=C/c2ccc(C(=O)Nc3c[nH]c(C(=O)Nc4cc(C(=O)NCCC(=N)N)n(C)c4)c3)cn2)cc1", 3),
    ("[H]/N=C(\\CCNC(=O)c1cc(NC(=O)c2cc(NC(=O)c3ccc(C=Cc4ccc5nonc5c4)cc3)cn2C)cn1C)NCCOCCOCCOC", 13),
    ("CCCCNC(=O)c1cc(NC(=O)c2cc(NC(=O)c3ccc(/C=C/c4cnc5ccccc5c4)cc3)cn2C)cn1C", 12),
    ("O=C(Nc1c[nH]c(C(=O)Nc2c[nH]c(C(=O)NCCN3CCOCC3)c2)c1)c1ccc(/C=C/c2ccc3nonc3c2)cc1", 53),
    ("[H]/N=C(\\CCNC(=O)c1cc(NC(=O)c2cc(NC(=O)c3ccc(C=Cc4ccc5nonc5c4)cc3)cn2C)cn1C)N1CCN(C)CC1", 5),
    ("[H]/N=C(\\CCNC(=O)c1cc(NC(=O)c2cc(NC(=O)c3ccc(C=Cc4ccc5nonc5c4)cc3)cn2C)cn1C)NC", 38),
]

Hey, just so you know, these numbers are from patent US20250313546A1.
